Entry source: patent US6239126A

tested-system: human 5HT1A receptor (Homo sapiens)
Sequence (P08908 whole entry): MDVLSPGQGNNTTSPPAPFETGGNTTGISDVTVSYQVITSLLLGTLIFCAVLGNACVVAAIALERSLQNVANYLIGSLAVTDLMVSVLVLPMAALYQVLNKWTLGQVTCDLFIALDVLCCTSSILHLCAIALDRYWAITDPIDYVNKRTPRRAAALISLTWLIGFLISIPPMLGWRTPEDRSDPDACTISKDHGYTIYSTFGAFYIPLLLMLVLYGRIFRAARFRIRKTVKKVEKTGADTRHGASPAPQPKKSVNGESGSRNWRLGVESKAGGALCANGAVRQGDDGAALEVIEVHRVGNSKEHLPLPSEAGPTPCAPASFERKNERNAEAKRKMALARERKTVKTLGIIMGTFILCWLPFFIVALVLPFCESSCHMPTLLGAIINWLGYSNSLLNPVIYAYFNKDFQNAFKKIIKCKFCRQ
experiment-description: 5-HT1A Receptor Intrinsic Activity Assay, ability to reverse agonist induced activity (cAMP, CHO cells stably transfected with the human 5-HT1A receptor)
experimental-context: reversal of agonist induced activity; 6 concentrations of antagonist preincubated 20 minutes prior to agonist and forskolin
property-measured: pIC50
The scale used: pIC50 is minus the common logarithm of the concentration in molar units.

Value lookup for pIC50; key = COc1ccc(F)cc1C1CCN(C[C@@H](Cc2ccccc2)N(C)C(=O)NC2CCCCC2)CC1
7.33

Value lookup for pIC50; key = COc1ccc(F)cc1C1=CCN(C[C@@H](Cc2ccccc2)N(C)C(=O)NC2CCCCC2)CC1
7.90
